Every entry's value here was drawn from ChEMBL document CHEMBL4330056.

Here, each record is paired with measured remaining at 2 h, 3.3 µM data.
protocol: Stability in human plasma assessed as compound remaining at 3.3 umol/L after 120 mins by RF-MS analysis relative to control
Assay type: ADME, cell-free
assay-conditions: read-out: Stability
readout-name: remaining at 2 h, 3.3 µM

structure_notation=CSc1ncnc2c1c1occc1n2[C@@H]1O[C@H](CO)[C@@H](O)[C@H]1O observed=96%
structure_notation=Cc1ncnc2c1c1c(ccn1C)n2[C@@H]1O[C@H](CO)[C@@H](O)[C@H]1O observed=79%
structure_notation=CSc1ncnc2c1c1c(ccn1C)n2[C@@H]1O[C@H](CO)[C@@H](O)[C@H]1O observed=98%
structure_notation=Cc1ncnc2c1c1occc1n2[C@@H]1O[C@H](CO)[C@@H](O)[C@H]1O observed=96%

====

target-entity: Adenosine kinase (Homo sapiens, UniProt P55263)
Sequence (P55263 whole entry): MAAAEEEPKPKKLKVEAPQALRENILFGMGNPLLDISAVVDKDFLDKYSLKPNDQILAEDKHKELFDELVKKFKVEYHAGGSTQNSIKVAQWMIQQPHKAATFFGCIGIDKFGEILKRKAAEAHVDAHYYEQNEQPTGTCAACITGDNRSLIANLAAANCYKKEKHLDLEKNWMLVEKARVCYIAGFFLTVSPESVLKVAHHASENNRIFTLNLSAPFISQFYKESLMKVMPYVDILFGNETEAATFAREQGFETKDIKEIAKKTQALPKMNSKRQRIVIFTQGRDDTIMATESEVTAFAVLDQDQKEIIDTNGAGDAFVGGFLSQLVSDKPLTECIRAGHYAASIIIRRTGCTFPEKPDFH
protocol: Substrate activity at recombinant human ADK assessed as compound phosphorylation at 50 uM after 20 mins in presence of [3H]-adenosine by UPLC
Type: ADME
Here, each record is paired with measured Activity data.
readout-name: Activity (%)

structure_notation=Cc1ncnc2c1c1c(ccn1C)n2[C@@H]1O[C@H](CO)[C@@H](O)[C@H]1O observed=42
structure_notation=OC[C@H]1O[C@@H](n2c3ccoc3c3c(-c4ccoc4)ncnc32)[C@H](O)[C@@H]1O observed=38
structure_notation=CSc1ncnc2c1c1occc1n2[C@@H]1O[C@H](CO)[C@@H](O)[C@H]1O observed=56
structure_notation=Cn1ccc2c1c1c(-c3cc4ccccc4o3)ncnc1n2[C@@H]1O[C@H](CO)[C@@H](O)[C@H]1O observed=0
structure_notation=Nc1ncnc2c1ncn2[C@@H]1O[C@H](CO)[C@@H](O)[C@H]1O observed=73
structure_notation=Cn1ccc2c1c1c(-c3ccco3)ncnc1n2[C@@H]1O[C@H](CO)[C@@H](O)[C@H]1O observed=11
structure_notation=Nc1ncnc2c1c1occc1n2[C@@H]1O[C@H](CO)[C@@H](O)[C@H]1O observed=75
structure_notation=Cn1ccc2c3c(-c4ccoc4)ncnc3n([C@@H]3O[C@H](CO)[C@@H](O)[C@H]3O)c21 observed=0
structure_notation=COc1ncnc2c1c1c(ccn1C)n2[C@@H]1O[C@H](CO)[C@@H](O)[C@H]1O observed=47

====

Tested on: CCRF-CEM
protocol: Induction of cell cycle arrest in human CCRF-CEM cells assessed as accumulation at S phase at 5 times IC50 concentration after 24 hrs by propidium iodide-staining based flow cytometry (reference value: 41.08%)
Format: functional
readout-name: Activity (%)

structure_notation=CSc1ncnc2c1c1c(ccn1C)n2[C@@H]1O[C@H](CO)[C@@H](O)[C@H]1O observed=42.94
structure_notation=COc1ncnc2c1c1occc1n2[C@@H]1O[C@H](CO)[C@@H](O)[C@H]1O observed=65.39
structure_notation=CSc1ncnc2c1c1occc1n2[C@@H]1O[C@H](CO)[C@@H](O)[C@H]1O observed=53.55
structure_notation=Nc1ncnc2c1c(-c1cccs1)cn2[C@@H]1O[C@H](CO)[C@@H](O)[C@H]1O observed=38.71
structure_notation=Cc1ncnc2c1c1c(ccn1C)n2[C@@H]1O[C@H](CO)[C@@H](O)[C@H]1O observed=52.19
structure_notation=COc1ncnc2c1c1c(ccn1C)n2[C@@H]1O[C@H](CO)[C@@H](O)[C@H]1O observed=36.98
structure_notation=Cc1ncnc2c1c1occc1n2[C@@H]1O[C@H](CO)[C@@H](O)[C@H]1O observed=59.66

====

protocol: Chemical stability of the compound assessed as compound remaining after 120 mins relative to control
Assay type: physicochemical
assay-conditions: read-out: Stability
readout-name: remaining at 2 h (%)

structure_notation=Cc1ncnc2c1c1occc1n2[C@@H]1O[C@H](CO)[C@@H](O)[C@H]1O observed=96
structure_notation=CSc1ncnc2c1c1occc1n2[C@@H]1O[C@H](CO)[C@@H](O)[C@H]1O observed=96
structure_notation=CSc1ncnc2c1c1c(ccn1C)n2[C@@H]1O[C@H](CO)[C@@H](O)[C@H]1O observed=97
structure_notation=Cc1ncnc2c1c1c(ccn1C)n2[C@@H]1O[C@H](CO)[C@@H](O)[C@H]1O observed=91

====

Tested on: HCT-116
protocol: Antiproliferative activity against human HCT116 cells after 3 days by MTS assay
Assay type: functional, cell-based
assay-conditions: HCT-116, 72 h
Here, each record is paired with measured IC50 data.
readout-name: IC50 (µM)

structure_notation=COc1ncnc2c1c1ccn(C)c1n2[C@@H]1O[C@H](CO)[C@@H](O)[C@H]1O value_comparator=> observed=50
structure_notation=OC[C@H]1O[C@@H](n2c3ccoc3c3c(-c4ccoc4)ncnc32)[C@H](O)[C@@H]1O value_comparator== observed=12.1
structure_notation=Cn1ccc2c1c1c(-c3cc4ccccc4o3)ncnc1n2[C@@H]1O[C@H](CO)[C@@H](O)[C@H]1O value_comparator== observed=46.2
structure_notation=Cc1ncnc2c1c1ccn(C)c1n2[C@@H]1O[C@H](CO)[C@@H](O)[C@H]1O value_comparator=> observed=50
structure_notation=Cn1ccc2c1c1c(Cl)ncnc1n2[C@@H]1O[C@H](CO)[C@@H](O)[C@H]1O value_comparator== observed=0.17
structure_notation=CSc1ncnc2c1c1ccn(C)c1n2[C@@H]1O[C@H](CO)[C@@H](O)[C@H]1O value_comparator== observed=35.9
structure_notation=Nc1ncnc2c1c1occc1n2[C@@H]1O[C@H](CO)[C@@H](O)[C@H]1O value_comparator== observed=48.4
structure_notation=COc1ncnc2c1c1occc1n2[C@@H]1O[C@H](CO)[C@@H](O)[C@H]1O value_comparator== observed=0.28
structure_notation=Cn1ccc2c3c(N)ncnc3n([C@@H]3O[C@H](CO)[C@@H](O)[C@H]3O)c21 value_comparator=> observed=50

====

Here, each record is paired with measured pIC50 data.
protocol: Antiproliferative activity against human K562-TAX cells after 3 days by MTS assay
Assay type: functional, cell-based
assay-conditions: 72 h
pIC50: −log10 of the molar value.
readout-name: pIC50

structure_notation=Nc1ncnc2c1c1occc1n2[C@@H]1O[C@H](CO)[C@@H](O)[C@H]1O observed=4.30
structure_notation=Cn1ccc2c3c(-c4cc5ccccc5o4)ncnc3n([C@@H]3O[C@H](CO)[C@@H](O)[C@H]3O)c21 observed=4.64
structure_notation=Cn1ccc2c3c(-c4ccoc4)ncnc3n([C@@H]3O[C@H](CO)[C@@H](O)[C@H]3O)c21 observed="< 4.30"
structure_notation=Cn1ccc2c1c1c(-c3ccco3)ncnc1n2[C@@H]1O[C@H](CO)[C@@H](O)[C@H]1O observed="< 4.30"
structure_notation=COc1ncnc2c1c1c(ccn1C)n2[C@@H]1O[C@H](CO)[C@@H](O)[C@H]1O observed="< 4.30"
structure_notation=CN(C)c1ncnc2c1c1occc1n2[C@@H]1O[C@H](CO)[C@@H](O)[C@H]1O observed="< 4.30"
structure_notation=Cn1ccc2c1c1c(-c3cc4ccccc4o3)ncnc1n2[C@@H]1O[C@H](CO)[C@@H](O)[C@H]1O observed=4.53
structure_notation=COc1ncnc2c1c1ccn(C)c1n2[C@@H]1O[C@H](CO)[C@@H](O)[C@H]1O observed="< 4.30"

====

Test system: BJ
protocol: Antiproliferative activity against human BJ cells after 3 days by MTS assay
assay-conditions: 72 h
readout-name: IC50

structure_notation=OC[C@H]1O[C@@H](n2c3ccoc3c3c(-c4ccco4)ncnc32)[C@H](O)[C@@H]1O observed="> 50 µM"
structure_notation=CN(C)c1ncnc2c1c1c(ccn1C)n2[C@@H]1O[C@H](CO)[C@@H](O)[C@H]1O observed="> 50 µM"
structure_notation=Cc1ncnc2c1c1ccn(C)c1n2[C@@H]1O[C@H](CO)[C@@H](O)[C@H]1O observed="> 50 µM"
structure_notation=OC[C@H]1O[C@@H](n2c3ccoc3c3c(-c4ccoc4)ncnc32)[C@H](O)[C@@H]1O observed="0.52 µM"
structure_notation=Cn1ccc2c1c1c(N)ncnc1n2[C@@H]1O[C@H](CO)[C@@H](O)[C@H]1O observed="> 50 µM"
structure_notation=Cn1ccc2c3c(-c4ccoc4)ncnc3n([C@@H]3O[C@H](CO)[C@@H](O)[C@H]3O)c21 observed="> 50 µM"
structure_notation=Cn1ccc2c3c(Cl)ncnc3n([C@@H]3O[C@H](CO)[C@@H](O)[C@H]3O)c21 observed="> 50 µM"
structure_notation=CSc1ncnc2c1c1c(ccn1C)n2[C@@H]1O[C@H](CO)[C@@H](O)[C@H]1O observed="5.16 µM"
structure_notation=Cn1ccc2c1c1c(-c3ccco3)ncnc1n2[C@@H]1O[C@H](CO)[C@@H](O)[C@H]1O observed="> 50 µM"

====

target-entity: Adenosine kinase (Homo sapiens, UniProt P55263)
protocol: Substrate activity at recombinant human ADK assessed as compound phosphorylation at 50 uM after 20 mins in presence of [3H]-adenosine by UPLC
Type: ADME
readout-name: Activity (%)

structure_notation=CSc1ncnc2c1c1ccn(C)c1n2[C@@H]1O[C@H](CO)[C@@H](O)[C@H]1O readout_name=Activity observed=0
structure_notation=COc1ncnc2c1c1occc1n2[C@@H]1O[C@H](CO)[C@@H](O)[C@H]1O readout_name=Activity observed=35
structure_notation=OC[C@H]1O[C@@H](n2c3ccoc3c3c(-c4ccco4)ncnc32)[C@H](O)[C@@H]1O readout_name=Activity observed=34
structure_notation=Cn1ccc2c1c1c(Cl)ncnc1n2[C@@H]1O[C@H](CO)[C@@H](O)[C@H]1O readout_name=Activity observed=77
structure_notation=CN(C)c1ncnc2c1c1occc1n2[C@@H]1O[C@H](CO)[C@@H](O)[C@H]1O readout_name=Activity observed=7
structure_notation=Cn1ccc2c3c(-c4ccco4)ncnc3n([C@@H]3O[C@H](CO)[C@@H](O)[C@H]3O)c21 readout_name=Activity observed=0
structure_notation=CSc1ncnc2c1c1c(ccn1C)n2[C@@H]1O[C@H](CO)[C@@H](O)[C@H]1O readout_name=Activity observed=33
structure_notation=Cn1ccc2c3c(N)ncnc3n([C@@H]3O[C@H](CO)[C@@H](O)[C@H]3O)c21 readout_name=Activity observed=0
structure_notation=Cn1ccc2c3c(-c4cc5ccccc5o4)ncnc3n([C@@H]3O[C@H](CO)[C@@H](O)[C@H]3O)c21 readout_name=Activity observed=0
